- study.system: CDK11B/Cyclin L2 (Homo sapiens, UniProt P21127)
- Sequence (P21127 1-782 isoform P21127-2): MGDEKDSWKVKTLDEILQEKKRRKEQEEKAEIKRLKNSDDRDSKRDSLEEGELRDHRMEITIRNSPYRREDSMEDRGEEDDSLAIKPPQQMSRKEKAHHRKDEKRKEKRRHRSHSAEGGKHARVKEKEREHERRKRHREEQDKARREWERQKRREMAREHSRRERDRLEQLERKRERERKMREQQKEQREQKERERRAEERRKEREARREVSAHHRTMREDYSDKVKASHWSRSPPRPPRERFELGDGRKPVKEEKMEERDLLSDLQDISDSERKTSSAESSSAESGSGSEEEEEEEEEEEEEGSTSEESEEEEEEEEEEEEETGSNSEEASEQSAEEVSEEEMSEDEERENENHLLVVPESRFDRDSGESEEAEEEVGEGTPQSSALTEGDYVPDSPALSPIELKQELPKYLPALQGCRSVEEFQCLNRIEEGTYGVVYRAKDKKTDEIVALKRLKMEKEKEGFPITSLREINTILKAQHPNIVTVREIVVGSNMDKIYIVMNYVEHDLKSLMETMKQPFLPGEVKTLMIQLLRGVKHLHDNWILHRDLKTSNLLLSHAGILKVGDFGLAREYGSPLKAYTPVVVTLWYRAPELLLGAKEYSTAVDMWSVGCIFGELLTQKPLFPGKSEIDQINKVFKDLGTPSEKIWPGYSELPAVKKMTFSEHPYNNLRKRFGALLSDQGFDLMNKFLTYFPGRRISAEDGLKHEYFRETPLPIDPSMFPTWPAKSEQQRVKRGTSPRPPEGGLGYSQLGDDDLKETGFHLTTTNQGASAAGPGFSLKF
- experimental.protocol: NanoBRET live-cell target engagement, CDK11B-NanoLuc/Cyclin L2 in HEK-293
- Format: binding
- details: CDK11b/L2; 10µM
Each entry below carries its reported Inhibition at 10µM (%) Replicate 2.
readout.name: Inhibition at 10µM (%) Replicate 2

compound	study.system	readout.name	units.symbol	meas.value
CC(C)c1cnn2c(NCc3ccccc3)cc(N[C@@H](CO)[C@H](O)CO)nc12	CDK11B/Cyclin L2 (Homo sapiens, UniProt P21127)	Inhibition at 10µM (%) Replicate 2	%	10.7
CCC(CO)Nc1nc(Nc2cccc(-c3ccccn3)c2)c2ncn(C(C)C)c2n1.Cl.O [(R) - DRF053]	CDK11B/Cyclin L2 (Homo sapiens, UniProt P21127)	Inhibition at 10µM (%) Replicate 2	%	7.8
CNC1CCN(C(=O)c2ccc(Nc3ncc(F)c(-c4cnc(C)n4C(C)C)n3)cc2)C1 (stereo not shown)	CDK11B/Cyclin L2 (Homo sapiens, UniProt P21127)	Inhibition at 10µM (%) Replicate 2	%	88.6
O=C(Nc1c[nH]nc1-c1ccccn1)c1nn(C2CCNCC2)cc1Cl	CDK11B/Cyclin L2 (Homo sapiens, UniProt P21127)	Inhibition at 10µM (%) Replicate 2	%	-3.2
